- Method Description: Microsomal stability assay, human liver microsomes
- Type: in vitro ADME
- Assay Context: 10 μM test compound, 0.5 mg/mL protein, 37° C.
- Method: 4 μL of 1 mM test compound at a final concentration of 10 μM dissolved in DMSO/ACN/Methanol/Ethanol was preincubated at 37° C. for 5 minutes on a digital heating shaking dry bath (Fischer scientific, Pittsburgh, Pa.) in a mixture containing 282 μL of water, 80 μL of phosphate buffer (0.5 M, pH 7.4), 20 μL of NADPH Regenerating System Solution A (BD Bioscience, San Jose, Calif.) and 4 μL of NADPH Regenerating System Solution B (BD Bioscience, San Jose, Calif.) in a total volume of 391.2 μL. […]
Below: a set of entries, each annotated with reported Half-life (min) (HLM).

- Smiles Input: "[2H]C([2H])([2H])Oc1ccc(-n2nc3c4ccc(Br)cc4[nH]cc-3c2=O)cc1"
  Half-life (min) (HLM): 204.6
- Smiles Input: "COc1ccc(-n2nc3c4ccc(Br)cc4[nH]cc-3c2=O)cn1"
  Half-life (min) (HLM): 727.7
- Smiles Input: "[2H]C([2H])([2H])Oc1ccc(-n2nc3c4ccc(Br)cc4[nH]cc-3c2=O)cn1"
  Half-life (min) (HLM): 2341
- Smiles Input: "[2H]C([2H])([2H])Oc1ccc2c3nn(-c4ccc(OC)nc4)c(=O)c-3c[nH]c2c1"
  Half-life (min) (HLM): 752.30
- Smiles Input: "[2H]C([2H])([2H])Oc1cccc(-n2nc3c4cc(Cl)ccc4[nH]cc-3c2=O)c1"
  Half-life (min) (HLM): 649
- Smiles Input: "[2H]C([2H])([2H])Oc1ccc(-n2nc3c4cc(Cl)ccc4[nH]cc-3c2=O)cn1"
  Half-life (min) (HLM): 725.8
- Smiles Input: "[2H]C([2H])([2H])Oc1ccc(-n2nc3c4ccc(OC([2H])([2H])[2H])cc4[nH]cc-3c2=O)cc1"
  Half-life (min) (HLM): 780.73
- Smiles Input: "COc1ccc(-n2nc3c4cc(Cl)ccc4[nH]cc-3c2=O)cn1"
  Half-life (min) (HLM): 511

* * *

Below: a set of entries, each annotated with reported solubility at 2 h.
- Method Description: Solubility of compounds in DI water
- Assay type: physicochemical
- Assay Context: thermodynamic from solid; 2 mg in 2 mL DI water, sonicated at 60° C. for 2 hours, cooled to room temperature, filtered

- Smiles Input: "[2H]C([2H])([2H])Oc1ccc(-n2nc3c4ccc(OC([2H])([2H])[2H])cc4[nH]cc-3c2=O)cc1"
  solubility at 2 h: "16 µg/mL"
- Smiles Input: "[2H]C([2H])([2H])Oc1ccc(-n2nc3c4ccc(OC)cc4[nH]cc-3c2=O)cc1"
  solubility at 2 h: "11.4 µg/mL"
- Smiles Input: "[2H]C([2H])([2H])Oc1ccc2c3nn(-c4ccc(OC)nc4)c(=O)c-3c[nH]c2c1"
  solubility at 2 h: "211 µg/mL"
- Smiles Input: "[2H]C([2H])([2H])Oc1ccc(-n2nc3c4ccc(Br)cc4[nH]cc-3c2=O)cc1"
  solubility at 2 h: "9.2 µg/mL"

* * *

- Method Description: Microsomal stability assay, mouse liver microsomes
- Format: in vitro ADME
- Assay Context: 10 μM test compound, 0.5 mg/mL protein, 37° C.
Below: a set of entries, each annotated with reported Half-life (min) (MLM).
Measured Endpoint: Half-life (min) (MLM)

- Smiles Input: "[2H]C([2H])([2H])Oc1ccc(-n2nc3c4ccc(OC)cc4[nH]cc-3c2=O)cc1"
  Measured Result: 628.8
- Smiles Input: "COc1ccc2c3nn(-c4ccc(OC)nc4)c(=O)c-3c[nH]c2c1"
  Measured Result: 139.2
- Smiles Input: "[2H]C([2H])([2H])Oc1ccc(-n2nc3c4ccc(OC)cc4[nH]cc-3c2=O)cn1"
  Measured Result: 640
- Smiles Input: "[2H]C([2H])([2H])Oc1ccc(-n2nc3c4cc(Cl)ccc4[nH]cc-3c2=O)cn1"
  Measured Result: 250.62
- Smiles Input: "[2H]C([2H])([2H])Oc1ccc2c3nn(-c4ccc(OC)cc4)c(=O)c-3c[nH]c2c1"
  Measured Result: 857.8
- Smiles Input: "[2H]C([2H])([2H])Oc1ccc2c3nn(-c4ccc(OC)nc4)c(=O)c-3c[nH]c2c1"
  Measured Result: 550.6

* * *

- Method Description: Rapid equilibrium dialysis assay, free fraction
- Type: in vitro ADME
- Assay Context: rat, read-out: free fraction in rat blood

- Smiles Input: "[2H]C([2H])([2H])Oc1ccc(-n2nc3c4ccc(OC)cc4[nH]cc-3c2=O)cc1"
  fraction unbound: "< 0.005"

* * *

- Method Description: Microsomal stability assay, mouse liver microsomes
- Format: in vitro ADME
- Assay Context: mouse, liver microsomes, pH 7.4; 10 μM test compound, 0.5 mg/mL protein, 37° C.; read-out: Half-life (min) (MLM)
Below: a set of entries, each annotated with reported half-life at 10 μM.
Measured Endpoint: half-life at 10 μM

- Compound: "[2H]C([2H])([2H])Oc1ccc(-n2nc3c4ccc(Br)cc4[nH]cc-3c2=O)cc1 [DK-I-58-1]"
  Measured Result: "140 min"
- Compound: "[2H]C([2H])([2H])Oc1cccc(-n2nc3c4cc(Cl)ccc4[nH]cc-3c2=O)c1 [DK-I-59-1]"
  Measured Result: "166 min"
- Compound: "COc1ccc(-n2nc3c4cc(Cl)ccc4[nH]cc-3c2=O)cc1 [Compound 11]"
  Measured Result: "116 min"
- Compound: "COc1ccc(-n2nc3c4ccc(OC)cc4[nH]cc-3c2=O)cc1 [Compound 6]"
  Measured Result: "194 min"

* * *

- Method Description: Pharmacokinetic study in rats, plasma and brain
- Assay Context: male, Wistar, rat, brain, ip, 10 mg/kg

- Smiles Input: "[2H]C([2H])([2H])Oc1ccc(-n2nc3c4ccc(OC)cc4[nH]cc-3c2=O)cc1"
  half-life: "~4 h"

* * *

- Method Description: Microsomal stability assay, human liver microsomes
- Type: in vitro ADME
- Assay Context: 10 μM test compound, 0.5 mg/mL protein, 37° C.
Decide using % left after 1 hr. (HLM) alone. Strictly below 90%: Criterion met. Equal to or above 90%: Criterion not met.

- Compound: "[2H]C([2H])([2H])Oc1ccccc1-n1nc2c3cc(Cl)ccc3[nH]cc-2c1=O [DK-I-87-1]"
  Label Value: "Criterion not met"
- Compound: "[2H]C([2H])([2H])Oc1ccc(-n2nc3c4ccc(Br)cc4[nH]cc-3c2=O)cn1 [DK-II-58-1]"
  Label Value: "Criterion not met"
- Compound: "[2H]C([2H])([2H])Oc1ccc2c3nn(-c4ccc(OC)cc4)c(=O)c-3c[nH]c2c1 [RV-I-029]"
  Label Value: "Criterion not met"
- Compound: "COc1ccc2c3nn(-c4ccc(OC)nc4)c(=O)c-3c[nH]c2c1 [DK-II-13-1]"
  Label Value: "Criterion not met"
- Compound: "[2H]C([2H])([2H])Oc1ccc(-n2nc3c4cc(Cl)ccc4[nH]cc-3c2=O)cn1 [DK-II-59-1]"
  Label Value: "Criterion not met"
- Compound: "COc1ccc(-n2nc3c4cc(Cl)ccc4[nH]cc-3c2=O)cc1 [Compound 11]"
  Label Value: "Criterion met"
- Compound: "COc1ccc(-n2nc3c4ccc(OC)cc4[nH]cc-3c2=O)cc1 [Compound 6]"
  Label Value: "Criterion met"
- Compound: "COc1ccc(-n2nc3c4ccc(Br)cc4[nH]cc-3c2=O)cn1 [DK-II-48-1]"
  Label Value: "Criterion not met"
- Compound: "COc1cccc(-n2nc3c4cc(Cl)ccc4[nH]cc-3c2=O)c1 [LAU 159]"
  Label Value: "Criterion met"
- Compound: "[2H]C([2H])([2H])Oc1cccc(-n2nc3c4cc(Cl)ccc4[nH]cc-3c2=O)c1 [DK-I-59-1]"
  Label Value: "Criterion not met"
- Compound: "[2H]C([2H])([2H])Oc1ccc(-n2nc3c4ccc(Br)cc4[nH]cc-3c2=O)cc1 [DK-I-58-1]"
  Label Value: "Criterion met"
- Compound: "COc1ccc(-n2nc3c4ccc(Br)cc4[nH]cc-3c2=O)cc1 [LAU 463]"
  Label Value: "Criterion met"

* * *

Below: a set of entries, each annotated with reported % left after 1 hr. (MLM).
- Method Description: Microsomal stability assay, mouse liver microsomes
- Assay type: in vitro ADME
- Assay Context: 10 μM test compound, 0.5 mg/mL protein, 37° C.
Measured Endpoint: % left after 1 hr. (MLM)

- Compound: "[2H]C([2H])([2H])Oc1ccccc1-n1nc2c3cc(Cl)ccc3[nH]cc-2c1=O [DK-I-87-1]"
  Measured Result: "94.91 ± 0.10%"
- Compound: "[2H]C([2H])([2H])Oc1ccc(-n2nc3c4cc(Cl)ccc4[nH]cc-3c2=O)cc1 [DK-I-93-1]"
  Measured Result: "85.53 ± 0.07%"
- Compound: "[2H]C([2H])([2H])Oc1ccc2c3nn(-c4ccc(OC)nc4)c(=O)c-3c[nH]c2c1 [DK-I-86-1]"
  Measured Result: "91.3 ± 0.12%"
- Compound: "COc1ccc(-n2nc3c4ccc(Br)cc4[nH]cc-3c2=O)cc1 [LAU 463]"
  Measured Result: "69 ± 0.16%"
- Compound: "COc1ccc(-n2nc3c4cc(Cl)ccc4[nH]cc-3c2=O)cc1 [Compound 11]"
  Measured Result: "69.2 ± 0.15%"
- Compound: "COc1cccc(-n2nc3c4cc(Cl)ccc4[nH]cc-3c2=O)c1 [LAU 159]"
  Measured Result: "59.83 ± 0.23%"
- Compound: "COc1ccc(-n2nc3c4ccc(Br)cc4[nH]cc-3c2=O)cn1 [DK-II-48-1]"
  Measured Result: "93.12 ± 0.22%"
- Compound: "[2H]C([2H])([2H])Oc1cccc(-n2nc3c4cc(Cl)ccc4[nH]cc-3c2=O)c1 [DK-I-59-1]"
  Measured Result: "76.6 ± 0.11%"
- Compound: "[2H]C([2H])([2H])Oc1ccc2c3nn(-c4ccc(OC)cc4)c(=O)c-3c[nH]c2c1 [RV-I-029]"
  Measured Result: "93.17 ± 016%"
- Compound: "COc1ccc(-n2nc3c4cc(Cl)ccc4[nH]cc-3c2=O)cn1 [DK-II-18-1]"
  Measured Result: "85.6 ± 0.12%"
- Compound: "[2H]C([2H])([2H])Oc1ccc(-n2nc3c4ccc(Br)cc4[nH]cc-3c2=O)cn1 [DK-II-58-1]"
  Measured Result: "98.39 ± 0.06%"
- Compound: "[2H]C([2H])([2H])Oc1ccc(-n2nc3c4ccc(OC([2H])([2H])[2H])cc4[nH]cc-3c2=O)cc1 [DK-I-60-3]"
  Measured Result: "93.08 ± 0.19%"
- Compound: "COc1ccc(-n2nc3c4ccc(OC)cc4[nH]cc-3c2=O)cc1 [Compound 6]"
  Measured Result: "80.35 ± 0.14%"
- Compound: "[2H]C([2H])([2H])Oc1ccc(-n2nc3c4ccc(OC)cc4[nH]cc-3c2=O)cn1 [DK-II-60-1]"
  Measured Result: "92.4 ± 0.12%"
- Compound: "COc1ccc2c3nn(-c4ccc(OC)nc4)c(=O)c-3c[nH]c2c1 [DK-II-13-1]"
  Measured Result: "74.77 ± 0.12%"
- Compound: "[2H]C([2H])([2H])Oc1ccc(-n2nc3c4ccc(OC)cc4[nH]cc-3c2=O)cc1 [DK-I-56-1]"
  Measured Result: "92.8 ± 0.09%"
- Compound: "[2H]C([2H])([2H])Oc1ccc(-n2nc3c4cc(Cl)ccc4[nH]cc-3c2=O)cn1 [DK-II-59-1]"
  Measured Result: "85.1 ± 0.10%"
- Compound: "[2H]C([2H])([2H])Oc1ccc(-n2nc3c4ccc(Br)cc4[nH]cc-3c2=O)cc1 [DK-I-58-1]"
  Measured Result: "73.8 ± 0.15%"

Values from patent US10865203B2
